# Tested on: 454973-116-R2-J3-PDC spheroids, percent test/control viability;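 also: spheroids exposed to compounds for 7 days before readout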
# assayDetails: Anticancer human tumor 454973-116-R2-J3-PDC patient-derived pancreatic carcinoma cell line growth inhibition [CLK]
# experimentalParameters: second compound 0.0316 µM; first compound 1 µM; hits give low values; spheroids with HUVEC and MSC
# Description: A high-throughput screen of multi-cell type tumor spheroids was designed to identify active combinations of […] and targeted small molecules. Complex spheroids include a stromal component modeled by human endothelial cells (HUVEC) and fibroblasts modeled by human mesenchymal stem cells (MSCs). […] Compounds. […] If the clinical Cmax for an agent had not been determined, the highest concentration tested was 10 microM. […]
valueKind: viability, T/C (%)
Please give a number only; it is taken to be in %.

Ask | Dear colleague, I am looking for the recorded viability, T/C of the following molecule: Nc1ccn(C2OC(CO)C(O)C2(F)F)c(=O)n1 (stereo unspecified) + CNC(=O)c1ccc(Nc2nc(OC3CCCC3)c3c(-c4ccc5nc(C)oc5c4)c[nH]c3n2)c(OC)c1
Reply | 7.75

Ask | Dear colleague, I am looking for the recorded viability, T/C of the following molecule: Nc1ccn(C2OC(CO)C(O)C2(F)F)c(=O)n1 (stereo unspecified) + CN1CCN(c2cc(C(=O)Nc3cc4cc(-c5cnn(C)c5)ccc4cn3)ccn2)CC1
Reply | 10.4

Ask | Dear colleague, I am looking for the recorded viability, T/C of the following molecule: C#Cc1c(F)ccc2cc(O)cc(-c3ncc4c(N5CC6CCC(C5)N6)nc(OCC56CCCN5CC(F)C6)nc4c3F)c12 (stereo unspecified) + CNC(=O)c1ccc(Nc2nc(OC3CCCC3)c3c(-c4ccc5nc(C)oc5c4)c[nH]c3n2)c(OC)c1
Reply | 32.5

Ask | Dear colleague, I am looking for the recorded viability, T/C of the following molecule: CC(Nc1ccc2c(c1)OCCn1cc(N3C(=O)OCC3C(F)F)nc1-2)C(N)=O (stereo unspecified) + CN1CCN(c2cc(C(=O)Nc3cc4cc(-c5cnn(C)c5)ccc4cn3)ccn2)CC1
Reply | 68.3

Ask | Dear colleague, I am looking for the recorded viability, T/C of the following molecule: C=CC(=O)N1CCN(c2nc(=O)n(-c3c(C)ccnc3C(C)C)c3nc(-c4c(O)cccc4F)c(F)cc23)C(C)C1 (stereo unspecified) + CN1CCN(c2cc(C(=O)Nc3cc4cc(-c5cnn(C)c5)ccc4cn3)ccn2)CC1
Reply | 110

Ask | Dear colleague, I am looking for the recorded viability, T/C of the following molecule: CC(=O)O[C@H]1C(=O)[C@@]2(C)[C@H]([C@H](OC(=O)c3ccccc3)[C@]3(O)C[C@H](OC(=O)[C@H](O)[C@@H](NC(=O)c4ccccc4)c4ccccc4)C(C)=C1C3(C)C)[C@]1(OC(C)=O)CO[C@@H]1C[C@@H]2O + CN1CCN(c2cc(C(=O)Nc3cc4cc(-c5cnn(C)c5)ccc4cn3)ccn2)CC1
Reply | 6.34

Ask | Dear colleague, I am looking for the recorded viability, T/C of the following molecule: CC(Nc1ccc2c(c1)OCCn1cc(N3C(=O)OCC3C(F)F)nc1-2)C(N)=O (stereo unspecified) + CNC(=O)c1ccc(Nc2nc(OC3CCCC3)c3c(-c4ccc5nc(C)oc5c4)c[nH]c3n2)c(OC)c1
Reply | 70.7

Ask | Dear colleague, I am looking for the recorded viability, T/C of the following molecule: COc1c(OCCCN2CCOCC2)ccc2c3n(c(=NC(=O)c4cnc(N)nc4)nc12)CCN3 + CN1CCN(c2cc(C(=O)Nc3cc4cc(-c5cnn(C)c5)ccc4cn3)ccn2)CC1
Reply | 6.87

Ask | Dear colleague, I am looking for the recorded viability, T/C of the following molecule: O=C(c1cc(Cc2n[nH]c(=O)c3ccccc23)ccc1F)N1CCN(C(=O)C2CC2)CC1 + CNC(=O)c1ccc(Nc2nc(OC3CCCC3)c3c(-c4ccc5nc(C)oc5c4)c[nH]c3n2)c(OC)c1
Reply | 104

Ask | Dear colleague, I am looking for the recorded viability, T/C of the following molecule: CCc1c2c(nc3ccc(O)cc13)-c1cc3c(c(=O)n1C2)COC(=O)[C@]3(O)CC + CN1CCN(c2cc(C(=O)Nc3cc4cc(-c5cnn(C)c5)ccc4cn3)ccn2)CC1
Reply | 0.71

Ask | Dear colleague, I am looking for the recorded viability, T/C of the following molecule: COc1c(OCCCN2CCOCC2)ccc2c3n(c(=NC(=O)c4cnc(N)nc4)nc12)CCN3 + CNC(=O)c1ccc(Nc2nc(OC3CCCC3)c3c(-c4ccc5nc(C)oc5c4)c[nH]c3n2)c(OC)c1
Reply | 8.47

Ask | Dear colleague, I am looking for the recorded viability, T/C of the following molecule: CCN1CCN(Cc2ccc(Nc3ncc(F)c(-c4cc(F)c5nc(C)n(C(C)C)c5c4)n3)nc2)CC1 + CN1CCN(c2cc(C(=O)Nc3cc4cc(-c5cnn(C)c5)ccc4cn3)ccn2)CC1
Reply | 62.2

Ask | Dear colleague, I am looking for the recorded viability, T/C of the following molecule: Nc1ccccc1NC(=O)c1ccc(CNC(=O)OCc2cccnc2)cc1 + CNC(=O)c1ccc(Nc2nc(OC3CCCC3)c3c(-c4ccc5nc(C)oc5c4)c[nH]c3n2)c(OC)c1
Reply | 69.4

Ask | Dear colleague, I am looking for the recorded viability, T/C of the following molecule: COc1cccc2c1C(=O)c1c(O)c3c(c(O)c1C2=O)CC(O)(C(=O)CO)CC3OC1CC(N)C(O)C(C)O1 (stereo unspecified) + CNC(=O)c1ccc(Nc2nc(OC3CCCC3)c3c(-c4ccc5nc(C)oc5c4)c[nH]c3n2)c(OC)c1
Reply | 6.66

Ask | Dear colleague, I am looking for the recorded viability, T/C of the following molecule: CC(CO)NC(=O)c1cc(-c2ccc(Cl)cc2)nn(-c2cnn(C)c2)c1=O (stereo unspecified) + CN1CCN(c2cc(C(=O)Nc3cc4cc(-c5cnn(C)c5)ccc4cn3)ccn2)CC1
Reply | 105

Ask | Dear colleague, I am looking for the recorded viability, T/C of the following molecule: Nc1ccccc1NC(=O)c1ccc(CNC(=O)OCc2cccnc2)cc1 + CN1CCN(c2cc(C(=O)Nc3cc4cc(-c5cnn(C)c5)ccc4cn3)ccn2)CC1
Reply | 74.2

Ask | Dear colleague, I am looking for the recorded viability, T/C of the following molecule: COc1cccc2c1C(=O)c1c(O)c3c(c(O)c1C2=O)CC(O)(C(=O)CO)CC3OC1CC(N)C(O)C(C)O1 (stereo unspecified) + CN1CCN(c2cc(C(=O)Nc3cc4cc(-c5cnn(C)c5)ccc4cn3)ccn2)CC1
Reply | 8.81

Ask | Dear colleague, I am looking for the recorded viability, T/C of the following molecule: O=c1[nH]cc(F)c(=O)[nH]1 + CNC(=O)c1ccc(Nc2nc(OC3CCCC3)c3c(-c4ccc5nc(C)oc5c4)c[nH]c3n2)c(OC)c1
Reply | 61.7

Ask | Dear colleague, I am looking for the recorded viability, T/C of the following molecule: CC(CO)NC(=O)c1cc(-c2ccc(Cl)cc2)nn(-c2cnn(C)c2)c1=O (stereo unspecified) + CNC(=O)c1ccc(Nc2nc(OC3CCCC3)c3c(-c4ccc5nc(C)oc5c4)c[nH]c3n2)c(OC)c1
Reply | 112

Ask | Dear colleague, I am looking for the recorded viability, T/C of the following molecule: COC1C=CCC(C)C(C)S(=O)(=O)NC(=O)c2ccc3c(c2)N(CC2CCC21)CC1(CCCc2cc(Cl)ccc21)CO3 (stereo unspecified) + CN1CCN(c2cc(C(=O)Nc3cc4cc(-c5cnn(C)c5)ccc4cn3)ccn2)CC1
Reply | 92.8

Ask | Dear colleague, I am looking for the recorded viability, T/C of the following molecule: C#Cc1c(F)ccc2cc(O)cc(-c3ncc4c(N5CC6CCC(C5)N6)nc(OCC56CCCN5CC(F)C6)nc4c3F)c12 (stereo unspecified) + CN1CCN(c2cc(C(=O)Nc3cc4cc(-c5cnn(C)c5)ccc4cn3)ccn2)CC1
Reply | 30.5

Where these numbers come from: PubChem BioAssay AID2060618
